Molecular target: human JAK2 (a.a. 828-1132) (Homo sapiens (Human))
Sequence (O60674 828-1132): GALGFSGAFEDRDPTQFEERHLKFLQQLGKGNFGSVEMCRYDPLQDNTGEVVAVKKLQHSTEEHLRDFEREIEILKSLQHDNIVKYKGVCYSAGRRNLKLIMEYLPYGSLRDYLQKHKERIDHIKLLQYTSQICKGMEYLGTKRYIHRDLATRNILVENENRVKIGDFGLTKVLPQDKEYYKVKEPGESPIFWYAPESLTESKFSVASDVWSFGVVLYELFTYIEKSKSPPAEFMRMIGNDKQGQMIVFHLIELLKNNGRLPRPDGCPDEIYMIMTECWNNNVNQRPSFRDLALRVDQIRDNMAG
Experiment: In vitro JAK kinase assay (HTRF), JAK2
Assay type: biochemical
Settings: JAK2/JAK1 IC50 ratio at 1 mM ATP
Property: JAK2/JAK1

A selection of reference data follows.
[
  {
    "Compound": "N#CCC1(n2cc(-c3ncnc4[nH]ccc34)cn2)CN(C2CCN(C(=O)Nc3ccc(F)cc3C(F)(F)F)CC2)C1",
    "Val": ">10"
  },
  {
    "Compound": "N#CCC1(n2cc(-c3ncnc4[nH]ccc34)cn2)CN([C@H]2CC[C@@H](Oc3cc(CN4CC[C@@H](O)C4)cc(C(F)(F)F)n3)CC2)C1",
    "Val": ">10"
  },
  {
    "Compound": "N#CCC(C1CCN(c2nc3cccnc3o2)C1)n1cc(-c2ncnc3[nH]ccc23)cn1 (stereo not shown)",
    "Val": ">10"
  },
  {
    "Compound": "N#CC[C@]1(n2cc(-c3ncnc4[nH]ccc34)cn2)C[C@H](N2CCC(Oc3cc(CCO)cc(C(F)(F)F)n3)CC2)C1",
    "Val": ">10"
  },
  {
    "Compound": "N#CCC(CN1CCN(C(=O)c2ccc(C#N)cc2F)CC1)n1ccc(-c2ncnc3[nH]ccc23)c1 (stereo not shown)",
    "Val": ">10"
  },
  {
    "Compound": "N#CC[C@]1(n2cc(-c3ncnc4[nH]ccc34)cn2)C[C@H](N2CCN(C(=O)c3ccnc(C(F)(F)F)n3)CC2)C1",
    "Val": ">10"
  }
]

We now examine a further compound.
Query string: Fill in: JAK2/JAK1 of N#CCC(C1CCN(c2cccc(Cl)n2)C1)n1cc(-c2ncnc3[nH]ccc23)cn1 (single isomer, unassigned) is ___
Result string: >10
